FYI, the data here is from patent US20110104055A1.

Molecular target: Aβ 1-42 fibrils (Homo sapiens)
Construct: purchased Bachem Inc
Sequence (P05067 672-713): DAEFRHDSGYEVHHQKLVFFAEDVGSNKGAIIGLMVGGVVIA
Assay: Congo red binding assay, Aβ 1-42 fibrils (Example 11)
Format: biochemical
Settings: Aβ:test compound wt/wt ratio 1:0.1; 3-day incubation
Exercise: for every item that follows, state its recorded % Inhibition Aβ (result ± S.D.), Congo red binding.
Give bare numbers, in %.

• O=C(Nc1cc(O)c(O)cc1F)c1ccc(O)c(O)c1 = 25.7

Please give % Inhibition Aβ (result ± S.D.), Congo red binding, item by item, for the list that follows.
1. O=C(Nc1ccc(O)c(O)c1)c1cc(O)c(O)cc1F
2. O=C(Nc1ccc(O)c(O)c1)c1ccc(O)c(O)c1F
3. O=C(O)CN(CCN(CC(=O)O)CC(=O)O)CC(=O)O
4. O=C(Nc1ccc(O)c(O)c1)c1cc(O)c(O)c(F)c1
5. O=C(Nc1ccc(O)c(O)c1F)c1ccc(O)c(O)c1
6. O=C(Nc1cc(O)c(O)c(F)c1)c1ccc(O)c(O)c1

stdout:
[49.9, 27.5, 0.0, 23.3, 18.3, 10.9]
